Value source: ChEMBL document CHEMBL1153836

target: MDR1 (ABCB1, P-glycoprotein) (Homo sapiens); experiment: Inhibition of human MDR1-dependent accumulation of calcein-AM expressed in MDCK2 cells at 50 uM; assay type: cell-based, MDCK-II; conditions: MDCK2 cells expressing human MDR1, probe calcein-AM
Sequence (P08183 whole entry): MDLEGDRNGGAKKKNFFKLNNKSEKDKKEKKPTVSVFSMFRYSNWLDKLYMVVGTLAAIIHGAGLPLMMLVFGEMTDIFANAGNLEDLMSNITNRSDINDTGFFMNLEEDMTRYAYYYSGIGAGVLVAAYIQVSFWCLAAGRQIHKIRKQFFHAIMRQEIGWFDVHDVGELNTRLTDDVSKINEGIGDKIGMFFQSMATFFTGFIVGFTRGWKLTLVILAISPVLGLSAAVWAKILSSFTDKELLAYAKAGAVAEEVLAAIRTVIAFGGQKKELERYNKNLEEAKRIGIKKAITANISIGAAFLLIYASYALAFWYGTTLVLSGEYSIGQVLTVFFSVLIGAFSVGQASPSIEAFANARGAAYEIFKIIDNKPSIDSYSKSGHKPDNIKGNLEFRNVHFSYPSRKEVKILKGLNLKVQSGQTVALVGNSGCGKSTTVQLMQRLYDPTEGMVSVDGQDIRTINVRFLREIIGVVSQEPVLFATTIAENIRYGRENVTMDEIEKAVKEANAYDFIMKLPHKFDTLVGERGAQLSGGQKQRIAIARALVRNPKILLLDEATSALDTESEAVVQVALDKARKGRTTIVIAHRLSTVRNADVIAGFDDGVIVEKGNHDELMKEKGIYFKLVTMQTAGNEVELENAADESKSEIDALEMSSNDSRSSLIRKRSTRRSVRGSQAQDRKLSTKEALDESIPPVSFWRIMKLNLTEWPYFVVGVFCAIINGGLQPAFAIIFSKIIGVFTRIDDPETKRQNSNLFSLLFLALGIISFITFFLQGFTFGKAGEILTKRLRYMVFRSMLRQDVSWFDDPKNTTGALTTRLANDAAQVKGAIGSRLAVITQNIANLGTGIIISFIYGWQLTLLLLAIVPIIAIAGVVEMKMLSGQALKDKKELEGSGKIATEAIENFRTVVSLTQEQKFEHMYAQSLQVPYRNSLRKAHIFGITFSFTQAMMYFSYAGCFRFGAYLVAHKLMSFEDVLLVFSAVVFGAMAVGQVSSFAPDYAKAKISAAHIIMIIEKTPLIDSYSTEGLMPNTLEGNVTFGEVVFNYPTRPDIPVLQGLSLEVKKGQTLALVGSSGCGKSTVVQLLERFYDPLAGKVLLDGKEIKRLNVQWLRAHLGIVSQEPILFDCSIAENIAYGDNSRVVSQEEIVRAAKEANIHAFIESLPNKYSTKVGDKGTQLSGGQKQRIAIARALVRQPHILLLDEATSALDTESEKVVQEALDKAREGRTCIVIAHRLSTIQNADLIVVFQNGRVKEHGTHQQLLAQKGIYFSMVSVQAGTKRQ
endpoint: inhibition at 50 µM

INPUT: Requested read-out: inhibition at 50 µM. Entry: "CC(C)(C)NC(=O)[C@@H]1CN(Cc2cccnc2)CCN1C[C@@H](O)C[C@@H](Cc1ccccc1)C(=O)N[C@H]1c2ccccc2C[C@H]1O.O"
OUTPUT: ≤ 25%

INPUT: Thanks! And "CC(C)CN(C[C@@H](O)[C@H](Cc1ccccc1)NC(=O)O[C@H]1CCOC1)S(=O)(=O)c1ccc(N)cc1" ?
OUTPUT: ≤ 25%

====

molecular target: UniProt:P08183; assay: Inhibition of human MDR1-dependent accumulation of calcein-AM expressed in MDCK2 cells at 50 uM; type: cell-based, MDCK-II; set-up: scale not given: the % may be the effect or the level left; settings: MDCK2 cells expressing human MDR1, probe calcein-AM, read-out: Activity
endpoint: activity at 50 µM
Write your answer as a measured quantity: the number, then the unit.

INPUT: Requested read-out: activity at 50 µM. Entry: "CC(C)CN(C[C@@H](O)[C@H](Cc1ccccc1)NC(=O)O[C@H]1CO[C@H]2OCC[C@H]21)S(=O)(=O)c1ccc(N)cc1"
OUTPUT: 15%

====

test system: Caco-2; experiment: Ratio of permeability from basolateral to apical side over apical to basolateral side in human Caco-2 cells at 1 uM; assay type: ADME, cell-based; conditions: caco-2, 1 µM
endpoint: Ratio
Please reply with the value in numeric form only.

INPUT: Requested read-out: Ratio. Entry: CC(C)OC(=O)OCOP(=O)(CO[C@H](C)Cn1cnc2c(N)ncnc21)OCOC(=O)OC(C)C.O=C(O)/C=C/C(=O)O [TENOFOVIR DISOPROXIL FUMARATE]
OUTPUT: 25

====

Kindly supply the reported IC50 values for the records listed here.
molecular target: ATP-dependent translocase ABCB1 (Homo sapiens); experiment: Inhibition of human MDR1-dependent accumulation of calcein-AM expressed in MDCK2 cells
Kindly answer with a numeric value in µM, unit omitted.

INPUT: Hello, I am looking for reported IC50 with ATP-dependent translocase ABCB1 (Homo sapiens) for "Cc1nc(COc2ccc(C[C@H](NC(=O)O[C@H]3CO[C@H]4OCC[C@H]43)[C@H](O)CN(CC(C)C)S(=O)(=O)c3ccc4c(c3)OCO4)cc2)cs1" . Could you help?
OUTPUT: 24.1

INPUT: Thanks! And "COC(=O)N[C@H](C(=O)N[C@@H](Cc1ccccc1)[C@@H](O)CN(Cc1ccc(-c2ccccn2)cc1)NC(=O)[C@@H](NC(=O)OC)C(C)(C)C)C(C)(C)C" ?
OUTPUT: 67.8
